# Test system: PCSK9 gene
# ASSAY PROTOCOL: PCSK9 gRNA/SpCas9 editing in primary human hepatocytes (Tables 2, 4)
# Assay type: cell-based
# COND: 100 ng/RNA/mL; SpCas9 mRNA MS002 1:1 by weight
In the oligonucleotide strings, read from the 5' end, every base follows the letter of its sugar. An asterisk marks phosphorothioate; unmarked linkages are phosphodiester. Other units and linkages are bracketed, terminal groups are in braces. A string of capitals states the bases alone. m = 2'-O-methyl; r = 2'-OH (RNA)
RECORDED METRIC: Human Primary Hepatocyte Editing % 100

Sample GA167: PCSK9 gRNA; protospacer TCAGCTCCAGGCGGTCCTGG (SEQ ID NO: 161) (nucleic acid, sugars from the 5' end m3 r94 m3, linkages s3 o93 s3 (s phosphorothioate, o phosphodiester), T or U not given here) guide: UCAGCUCCAGGCGGUCCUGGGUUUUAGAGCUAGAAAUAGCAAGUUAAAAUAAGGCUAGUCCGUUAUCAACUUGAAAAAGUGGCACCGAGUCGGUGCUUUU ; Human Primary Hepatocyte Editing % 100 observed: 8.2%

Sample GA159: PCSK9 gRNA; protospacer GCGTTCCGAGGAGGACGGCC (SEQ ID NO: 153) (nucleic acid) guide: mG*mC*mG*rUrUrCrCrGrArGrGrArGrGrArCrGrGrCrCrGrUrUrUrUrArGrArGrCrUrArGrArArArUrArGrCrArArGrUrUrArArArArUrArArGrGrCrUrArGrUrCrCrGrUrUrArUrCrArArCrUrUrGrArArArArArGrUrGrGrCrArCrCrGrArGrUrCrGrGrUrGrCrU*mU*mU*mU ; Human Primary Hepatocyte Editing % 100 observed: 1.35%

Sample GA192: PCSK9 gRNA; protospacer CCATGTCGACTACATCGAGG (SEQ ID NO: 186) (nucleic acid) guide: mC*mC*mA*rUrGrUrCrGrArCrUrArCrArUrCrGrArGrGrGrUrUrUrUrArGrArGrCrUrArGrArArArUrArGrCrArArGrUrUrArArArArUrArArGrGrCrUrArGrUrCrCrGrUrUrArUrCrArArCrUrUrGrArArArArArGrUrGrGrCrArCrCrGrArGrUrCrGrGrUrGrCrU*mU*mU*mU ; Human Primary Hepatocyte Editing % 100 observed: 1.14%

Sample GA160: PCSK9 gRNA; protospacer GCCTTGCGTTCCGAGGAGGA (SEQ ID NO: 154) (nucleic acid, sugars from the 5' end m3 r94 m3, linkages s3 o93 s3 (s phosphorothioate, o phosphodiester), T or U not given here) guide: GCCUUGCGUUCCGAGGAGGAGUUUUAGAGCUAGAAAUAGCAAGUUAAAAUAAGGCUAGUCCGUUAUCAACUUGAAAAAGUGGCACCGAGUCGGUGCUUUU ; Human Primary Hepatocyte Editing % 100 observed: 1.19%

Sample GA224: PCSK9 gRNA; protospacer GGCCGCTGACCACCCCTGCC (SEQ ID NO: 218) (nucleic acid, sugars from the 5' end m3 r94 m3, linkages s3 o93 s3 (s phosphorothioate, o phosphodiester), T or U not given here) guide: GGCCGCUGACCACCCCUGCCGUUUUAGAGCUAGAAAUAGCAAGUUAAAAUAAGGCUAGUCCGUUAUCAACUUGAAAAAGUGGCACCGAGUCGGUGCUUUU ; Human Primary Hepatocyte Editing % 100 observed: 1.01%

Sample GA195: PCSK9 gRNA; protospacer ACCACCGGGAAATCGAGGGC (SEQ ID NO: 189) (nucleic acid, sugars from the 5' end m3 r94 m3, linkages s3 o93 s3 (s phosphorothioate, o phosphodiester), T or U not given here) guide: ACCACCGGGAAAUCGAGGGCGUUUUAGAGCUAGAAAUAGCAAGUUAAAAUAAGGCUAGUCCGUUAUCAACUUGAAAAAGUGGCACCGAGUCGGUGCUUUU ; Human Primary Hepatocyte Editing % 100 observed: 3.58%

Sample GA189: PCSK9 gRNA; protospacer TCCTCGATGTAGTCGACATG (SEQ ID NO: 183) (nucleic acid) guide: mU*mC*mC*rUrCrGrArUrGrUrArGrUrCrGrArCrArUrGrGrUrUrUrUrArGrArGrCrUrArGrArArArUrArGrCrArArGrUrUrArArArArUrArArGrGrCrUrArGrUrCrCrGrUrUrArUrCrArArCrUrUrGrArArArArArGrUrGrGrCrArCrCrGrArGrUrCrGrGrUrGrCrU*mU*mU*mU ; Human Primary Hepatocyte Editing % 100 observed: 1.76%

Sample GA241: PCSK9 gRNA; protospacer TGCTGCTGCCCCTGGCGGGT (SEQ ID NO: 234) (nucleic acid, sugars from the 5' end m3 r94 m3, linkages s3 o93 s3 (s phosphorothioate, o phosphodiester), T or U not given here) guide: UGCUGCUGCCCCUGGCGGGUGUUUUAGAGCUAGAAAUAGCAAGUUAAAAUAAGGCUAGUCCGUUAUCAACUUGAAAAAGUGGCACCGAGUCGGUGCUUUU ; Human Primary Hepatocyte Editing % 100 observed: 0.61%

Sample GA166: PCSK9 gRNA; protospacer CGCCCGTGCGCAGGAGGACG (SEQ ID NO: 160) (nucleic acid, sugars from the 5' end m3 r94 m3, linkages s3 o93 s3 (s phosphorothioate, o phosphodiester), T or U not given here) guide: CGCCCGUGCGCAGGAGGACGGUUUUAGAGCUAGAAAUAGCAAGUUAAAAUAAGGCUAGUCCGUUAUCAACUUGAAAAAGUGGCACCGAGUCGGUGCUUUU ; Human Primary Hepatocyte Editing % 100 observed: 2.89%

Sample GA174: PCSK9 gRNA; protospacer GGATCTTGGTGAGGTATCCC (SEQ ID NO: 168) (nucleic acid, sugars from the 5' end m3 r94 m3, linkages s3 o93 s3 (s phosphorothioate, o phosphodiester), T or U not given here) guide: GGAUCUUGGUGAGGUAUCCCGUUUUAGAGCUAGAAAUAGCAAGUUAAAAUAAGGCUAGUCCGUUAUCAACUUGAAAAAGUGGCACCGAGUCGGUGCUUUU ; Human Primary Hepatocyte Editing % 100 observed: 1.18%

Sample GA209: PCSK9 gRNA; protospacer CTTGGCAGTTGAGCACGCGC (SEQ ID NO: 203) (nucleic acid, sugars from the 5' end m3 r94 m3, linkages s3 o93 s3 (s phosphorothioate, o phosphodiester), T or U not given here) guide: CUUGGCAGUUGAGCACGCGCGUUUUAGAGCUAGAAAUAGCAAGUUAAAAUAAGGCUAGUCCGUUAUCAACUUGAAAAAGUGGCACCGAGUCGGUGCUUUU ; Human Primary Hepatocyte Editing % 100 observed: 0.02%
